Biological target: T1, Recombinant Human DLL4 (R&D Systems Cat#1506-D4/CF) (human, UniProt Q9NR61 27-524)
T1 construct: also called rHuman DLL4; delta-like protein 4
Test: ECL (MSD) multispot binding assay, Fab on immobilized recombinant human DLL4
QUANTITY_NAME: ECL Signal/Blank
Note: the reply should be a number with no unit written.

Ask: Entry Fab VH5-51_IGHD5-18*01>3_IGHJ4*01 G100K/G104T S56A & V3-4_IGLJ1*01 (Fab, V domains shown, Tested as Fab; CH1 with His6/Flag tags (plasmid A) and lambda CL (plasmid E) come from the expression vectors) VH: EVQLVQSGAEVKKPGESLKISCKGSGYSFTSYWIGWVRQMPGKGLEWMGIIYPGDADTRYSPSFQGQVTISADKSISTAYLQWSSLKASDTAMYYCARRKYSYTYDYFDYWGQGTLVTVSS VL: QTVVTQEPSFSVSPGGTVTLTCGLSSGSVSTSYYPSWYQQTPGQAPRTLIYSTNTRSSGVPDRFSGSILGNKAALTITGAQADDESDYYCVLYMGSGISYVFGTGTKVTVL needs its ECL Signal/Blank filled in; supply it.
Result: 55
